target-under-test: human α1H T-type channels (Homo sapiens)
Sequence (O95180 whole entry): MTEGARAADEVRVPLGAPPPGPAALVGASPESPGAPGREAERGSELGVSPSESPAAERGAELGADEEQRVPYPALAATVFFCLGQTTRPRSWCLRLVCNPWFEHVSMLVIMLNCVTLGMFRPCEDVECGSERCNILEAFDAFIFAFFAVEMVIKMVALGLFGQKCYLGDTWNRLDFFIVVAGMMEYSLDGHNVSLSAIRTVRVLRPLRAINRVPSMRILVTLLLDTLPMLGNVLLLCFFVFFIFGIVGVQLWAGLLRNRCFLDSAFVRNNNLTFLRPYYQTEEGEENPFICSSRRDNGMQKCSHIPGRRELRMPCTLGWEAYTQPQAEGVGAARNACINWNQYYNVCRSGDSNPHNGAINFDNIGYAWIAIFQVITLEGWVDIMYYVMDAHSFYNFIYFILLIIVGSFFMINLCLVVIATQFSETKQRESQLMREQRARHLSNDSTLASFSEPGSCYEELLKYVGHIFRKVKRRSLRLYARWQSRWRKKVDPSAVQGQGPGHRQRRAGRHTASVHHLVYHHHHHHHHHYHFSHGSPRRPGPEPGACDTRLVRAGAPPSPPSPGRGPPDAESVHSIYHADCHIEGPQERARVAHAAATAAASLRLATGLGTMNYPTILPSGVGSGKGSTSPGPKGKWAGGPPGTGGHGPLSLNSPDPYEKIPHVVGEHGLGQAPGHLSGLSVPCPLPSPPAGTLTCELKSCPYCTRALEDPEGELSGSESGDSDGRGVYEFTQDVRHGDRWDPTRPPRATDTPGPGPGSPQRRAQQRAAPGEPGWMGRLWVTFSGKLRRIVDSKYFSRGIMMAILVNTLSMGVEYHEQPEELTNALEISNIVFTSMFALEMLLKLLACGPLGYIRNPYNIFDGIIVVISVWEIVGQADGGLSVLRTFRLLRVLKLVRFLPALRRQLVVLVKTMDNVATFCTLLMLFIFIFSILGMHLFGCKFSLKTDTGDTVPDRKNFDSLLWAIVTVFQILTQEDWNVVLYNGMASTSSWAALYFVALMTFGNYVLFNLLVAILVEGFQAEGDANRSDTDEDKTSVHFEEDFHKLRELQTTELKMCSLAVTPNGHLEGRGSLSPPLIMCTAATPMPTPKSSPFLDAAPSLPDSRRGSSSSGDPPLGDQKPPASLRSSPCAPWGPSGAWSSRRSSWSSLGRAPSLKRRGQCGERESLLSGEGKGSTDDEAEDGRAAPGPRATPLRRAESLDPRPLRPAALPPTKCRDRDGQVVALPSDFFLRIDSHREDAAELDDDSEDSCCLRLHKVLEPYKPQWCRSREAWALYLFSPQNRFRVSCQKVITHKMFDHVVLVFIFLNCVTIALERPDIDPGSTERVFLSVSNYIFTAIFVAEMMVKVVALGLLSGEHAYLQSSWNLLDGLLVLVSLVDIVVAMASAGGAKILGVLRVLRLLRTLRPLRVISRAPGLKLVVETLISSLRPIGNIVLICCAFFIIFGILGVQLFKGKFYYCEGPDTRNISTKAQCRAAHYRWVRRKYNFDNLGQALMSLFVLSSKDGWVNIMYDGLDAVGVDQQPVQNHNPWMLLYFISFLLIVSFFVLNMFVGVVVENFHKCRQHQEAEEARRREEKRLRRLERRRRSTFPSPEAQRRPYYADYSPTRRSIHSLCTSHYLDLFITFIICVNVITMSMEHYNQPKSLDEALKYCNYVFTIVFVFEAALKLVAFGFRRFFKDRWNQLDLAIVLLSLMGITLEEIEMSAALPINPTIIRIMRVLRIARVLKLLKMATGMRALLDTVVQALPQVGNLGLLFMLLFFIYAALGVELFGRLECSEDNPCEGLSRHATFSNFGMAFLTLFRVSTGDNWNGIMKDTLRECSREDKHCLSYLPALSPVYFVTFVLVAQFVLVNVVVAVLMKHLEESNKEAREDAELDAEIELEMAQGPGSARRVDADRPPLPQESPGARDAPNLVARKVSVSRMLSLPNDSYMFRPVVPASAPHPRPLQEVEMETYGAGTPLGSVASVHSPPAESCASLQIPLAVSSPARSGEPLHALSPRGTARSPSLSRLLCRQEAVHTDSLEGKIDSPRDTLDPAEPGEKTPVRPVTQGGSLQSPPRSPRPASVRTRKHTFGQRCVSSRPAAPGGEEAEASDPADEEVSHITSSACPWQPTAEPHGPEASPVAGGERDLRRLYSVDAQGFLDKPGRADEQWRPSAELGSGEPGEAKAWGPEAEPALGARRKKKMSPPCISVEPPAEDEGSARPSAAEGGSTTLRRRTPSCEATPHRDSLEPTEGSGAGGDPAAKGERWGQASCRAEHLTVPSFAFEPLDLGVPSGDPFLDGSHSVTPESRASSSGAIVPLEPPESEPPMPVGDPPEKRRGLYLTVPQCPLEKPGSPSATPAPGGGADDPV
assay-method-text: T-type calcium channel block, whole cell patch clamp, α1H
test-settings: HEK cells stably expressing human α1H; mainly non-inactivated protocol; values above 10,000 nM represented as 10000
Categorized via IC50: low (below 1000 nM), medium (1000 nM to below 3000 nM), high (3000 nM or more)

• O=C(NC1CCC(S(=O)(=O)c2cccc(C(F)(F)F)c2)CC1)c1ccc(C(F)(F)F)cn1 (stereo not shown) = high
• O=C(N[C@H]1CC[C@@](F)(S(=O)(=O)c2cccc(C(F)(F)F)c2)CC1)c1nc2cc(C(F)(F)F)ccc2[nH]1 = medium
• CC(C)(C(=O)Nc1ccc(Oc2ccc(F)cc2)cc1)S(=O)(=O)c1cccc(C(F)(F)F)c1 = medium
• O=C(N[C@H]1CC[C@@](F)(S(=O)(=O)c2cccc(C(F)(F)F)c2)CC1)c1cc(C(F)(F)F)ccn1 = low
• CC([C@H]1C[C@H](NC(=O)c2ccc(F)c(C(F)(F)F)c2)C1)S(=O)(=O)c1cccc(C(F)(F)F)c1 (stereo partly shown) = high
• O=S(=O)(CCC(F)(F)F)N[C@H]1CC[C@@](F)(S(=O)(=O)c2cccc(C(F)(F)F)c2)CC1 = low
• O=C(CN[C@H]1CC[C@H](CS(=O)(=O)c2cccc(C(F)(F)F)c2)CC1)Nc1ccccn1 = high
• CC(C)(CCNC(=O)c1ccc(C(F)(F)F)cn1)S(=O)(=O)c1cccc(C(F)(F)F)c1 = high
• O=C(NC[C@H]1CC[C@@H](S(=O)(=O)c2cccc(C(F)(F)F)c2)CC1)c1ccc(F)c(C(F)(F)F)c1 = high
• O=C(N[C@H]1CC[C@@](F)(S(=O)(=O)c2cccc(C(F)(F)F)c2)CC1)[C@@H]1CCCCN1 = high
• COc1cc(Cl)ccc1C(=O)N[C@H]1CC[C@@H](S(=O)(=O)c2cccc(C(F)(F)F)c2)CC1 = medium
• CC(C)NC(=O)CN[C@H]1CC[C@@H](S(=O)(=O)c2cccc(C(F)(F)F)c2)CC1 = low
• CS(=O)(=O)c1ccc(C(=O)N[C@H]2CC[C@@](F)(S(=O)(=O)c3cccc(C(F)(F)F)c3)CC2)cc1 = medium
• O=C(NC[C@H]1C[C@@H](S(=O)(=O)c2cccc(C(F)(F)F)c2)C1)c1ccc(F)c(C(F)(F)F)c1 = medium
• Cn1nc(C(F)(F)F)cc1C(=O)NCCC(C)(C)S(=O)(=O)c1cccc(C(F)(F)F)c1 = medium
• CC([C@H]1C[C@H](NC(=O)c2ccc(F)c(Cl)c2)C1)S(=O)(=O)c1cccc(C(F)(F)F)c1 (stereo partly shown) = low
• O=C(Nc1ccc(Oc2ccc(C(F)(F)F)nc2)nc1)[C@H]1C[C@H](S(=O)(=O)c2cccc(C(F)(F)F)c2)C1 = high
• O=C(NC[C@H]1C[C@H](S(=O)(=O)c2cccc(C(F)(F)F)c2)C1)c1cnc(C(F)(F)F)nc1 = low
• O=C(CN[C@H]1CC[C@@H](S(=O)(=O)c2cccc(C(F)(F)F)c2)CC1)NCC(F)(F)F = medium
• COc1cc(F)cc(C(=O)NC2(C)CCC(F)(S(=O)(=O)c3cccc(C(F)(F)F)c3)CC2)c1 (stereo not shown) = high
• O=C(N[C@H]1CC[C@@H](S(=O)(=O)c2cccc(C(F)(F)F)c2)CC1)c1cncc(C(F)(F)F)c1 = medium
• O=S(=O)(N[C@H]1CC[C@@](F)(S(=O)(=O)c2cccc(C(F)(F)F)c2)CC1)c1ccc(OC(F)(F)F)cc1 = low
• CC1(NC(=O)c2ccc(OC(F)(F)F)cc2)CCC(S(=O)(=O)c2cccc(C(F)(F)F)c2)CC1 (stereo not shown) = high
• O=C(Nc1ccc(C(F)(F)F)cn1)[C@H]1C[C@@H](S(=O)(=O)c2cccc(C(F)(F)F)c2)C1 = high
• O=C(NC[C@H]1C[C@H](S(=O)(=O)c2cccc(C(F)(F)F)c2)C1)c1ccc(F)c(C(F)(F)F)c1 = high
• Cc1nn(C)c(C)c1S(=O)(=O)N[C@H]1CC[C@@](F)(S(=O)(=O)c2cccc(C(F)(F)F)c2)CC1 = medium
• CN(CCC(C)(C)S(=O)(=O)c1cccc(C(F)(F)F)c1)C(=O)c1ccc(F)c(C(F)(F)F)c1 = high
• CC1(S(=O)(=O)c2cccc(C(F)(F)F)c2)CCC(NC(=O)c2cnc(C(F)(F)F)nc2)CC1 (stereo not shown) = medium

Reference for the values: patent US20120245137A1
